assay: Quantitative High-Throughput drug screen in 47 multiple myeloma cell lines against the NCATS MIPE library collection: ARP1_JJKsccF8 cell viability assay (AID 1918928; also: nearly all actives have a fitted effect of over 40% in size); conditions: ARP1 myeloma cells viability, CellTiter-Glo ATP, 48 h; series mostly up to 45.8 µM
Results filed as inconclusive are left out. The source made the active and inactive calls. Calls follow the shape of the dose curve; as a rule, active = well fitted cell-killing curve with a large enough effect; inconclusive = small, poorly fitted or top-dose-only effect, or effect the other way; inactive = no such curve, though single readings can be large or run the other way.
Give one outcome, nothing more. List: active, inactive

See these solved cases before continuing.
>  <mol>
COc1ccc(C=Cc2cc(OC)c(OC)c(OC)c2)cc1O

>  <answerLabel>
inactive

$$$$
>  <mol>
O=C(Nc1nc2cccc(-c3ccc(CN4CCS(=O)(=O)CC4)cc3)n2n1)C1CC1

>  <answerLabel>
active

$$$$
>  <mol>
CC(C)c1ccc(Cn2ccc3c4c(N)nc(NC5CC5)nc4ccc32)cc1

>  <answerLabel>
active

$$$$

Consider now this further compound.
Prompt line: Test call for this compound, please: `COc1ccc(OC)c(-c2nnc3ccc(-c4ccc(OC)c(O[C@@H]5CCOC5)c4)nn23)c1`
Response line: active
